I'd be grateful if you could share measured bioavailability for these entries.
Assay: BA test (oral absorption)
Format: in vivo
Settings: rat, plasma; rats; calculated from AUCs of oral and intravenous administration groups
Procedure: • (1) Animals: mice or rats • (2) Animal husbandry: Mice and rats had free access to solid food and sterilized bottled tap water. • (3) Setting of dose and group compositions: orally or intravenously administered at a predetermined dose Group compositions were as shown below. (Dose depends on the compound) Oral: 1 to 30 mg/kg (n=2 to 3) […]
Output spec: scalar in %, unitless text.

Q: Read the entry "COCCNc1ccc(-c2ccc(-c3nc4cc(O[C@@H]5CO[C@H]6[C@@H]5OC[C@H]6O)[nH]c4cc3F)cc2)cc1" and write its reported bioavailability.
Result: 40.5

Q: Read the entry "O[C@@H]1CO[C@H]2[C@@H]1OC[C@H]2Oc1cc2nc(-c3ccc(-c4ccc(O[C@@H]5CCOC5)cc4)cc3)c(F)cc2[nH]1" and write its reported bioavailability.
Result: 52.1

Q: Read the entry C[S+]([O-])c1ccc(-c2ccc(-c3nc4cc(O[C@@H]5CO[C@H]6[C@@H]5OC[C@H]6O)[nH]c4cc3F)cc2)cc1 (stereo partly drawn) and write its reported bioavailability.
Result: 17.8

* * *

I'd be grateful if you could share measured EC150 for these entries.
biological target: Human AMPK α2β2γ1 (Homo sapiens, UniProt O43741+P54646); construct: The full length cDNAs of human AMPK β2 (NM_005399.3) and human AMPK α2 (NM_006252.3); The full length cDNAs of human AMPK β2 (NM_005399.3); the full length cDNA of human AMPK γ1 (NM_002733.3) had been inserted into pET28b(+); 6×His (N); made in house; host or cells: Escherichia coli BL21 CodonPlus (DE3)-RIL; test: Test Example 2: activation of phosphorylated human AMPK α2β2γ1 (mobility-shift kinase assay, FL-Peptide 7); assay type: biochemical; conditions: compound concentration showing 150% relative to the control (100%); human AMPK α2β2γ1 phosphorylated with CaMKK2
Sequence (P54646 whole entry): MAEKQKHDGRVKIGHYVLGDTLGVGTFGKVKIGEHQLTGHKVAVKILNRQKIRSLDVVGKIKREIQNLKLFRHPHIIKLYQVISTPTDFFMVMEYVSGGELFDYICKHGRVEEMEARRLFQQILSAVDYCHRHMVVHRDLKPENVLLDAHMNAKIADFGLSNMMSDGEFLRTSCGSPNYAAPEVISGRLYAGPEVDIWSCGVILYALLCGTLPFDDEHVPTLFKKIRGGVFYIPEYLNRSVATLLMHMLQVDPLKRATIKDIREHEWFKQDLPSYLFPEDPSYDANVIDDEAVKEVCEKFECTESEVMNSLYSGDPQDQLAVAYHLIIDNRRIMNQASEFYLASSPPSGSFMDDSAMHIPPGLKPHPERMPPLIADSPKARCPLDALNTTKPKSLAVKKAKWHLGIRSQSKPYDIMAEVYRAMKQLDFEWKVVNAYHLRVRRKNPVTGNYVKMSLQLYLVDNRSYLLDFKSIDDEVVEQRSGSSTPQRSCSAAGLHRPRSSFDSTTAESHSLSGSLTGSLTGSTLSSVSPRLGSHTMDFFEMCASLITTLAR
Sequence (O43741 whole entry): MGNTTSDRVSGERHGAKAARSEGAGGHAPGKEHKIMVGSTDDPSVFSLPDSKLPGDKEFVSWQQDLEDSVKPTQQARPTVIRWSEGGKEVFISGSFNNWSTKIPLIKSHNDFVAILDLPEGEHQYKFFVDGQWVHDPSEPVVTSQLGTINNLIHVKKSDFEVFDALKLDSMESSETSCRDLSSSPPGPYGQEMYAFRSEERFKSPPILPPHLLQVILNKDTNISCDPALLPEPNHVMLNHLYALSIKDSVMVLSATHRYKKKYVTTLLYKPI
Sequence (P54619 whole entry partner): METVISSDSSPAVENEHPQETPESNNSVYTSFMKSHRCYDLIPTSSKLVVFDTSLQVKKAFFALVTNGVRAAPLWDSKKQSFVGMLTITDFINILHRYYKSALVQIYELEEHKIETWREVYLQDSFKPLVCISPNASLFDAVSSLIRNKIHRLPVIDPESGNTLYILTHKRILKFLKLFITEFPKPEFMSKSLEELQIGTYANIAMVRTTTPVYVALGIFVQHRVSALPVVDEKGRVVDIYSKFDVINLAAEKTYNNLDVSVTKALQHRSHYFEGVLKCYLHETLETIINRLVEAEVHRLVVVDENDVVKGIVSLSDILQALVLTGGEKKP
Output spec: scalar in nM, unitless text.

Q: Read the entry CS(C)(=O)=Nc1ccc(-c2ccc(-c3nc4cc(O[C@@H]5CO[C@H](CO)C5(F)F)[nH]c4cc3F)cc2)cc1 [Compound I-2-43] and write its reported EC150.
Result: 6.2

Q: Read the entry CS(C)(=O)=Nc1ccc(-c2ccc(-c3nc4cc(O[C@@H]5CO[C@H](CO)[C@H]5F)[nH]c4cc3F)cc2)cc1 [Compound I-2-42] and write its reported EC150.
Result: 2.6

Q: Read the entry CS(=O)(=O)N[C@H]1CC[C@H](c2ccc(-c3nc4cc(O[C@@H]5CO[C@H]6[C@@H]5OC[C@H]6O)[nH]c4cc3F)cc2)CC1 [Compound I-1-45] and write its reported EC150.
Result: 19

* * *

I'd be grateful if you could share measured Emax for these entries.
target: Human AMPK α2β2γ1 (Homo sapiens, UniProt O43741+P54646); construct: The full length cDNAs of human AMPK β2 (NM_005399.3) and human AMPK α2 (NM_006252.3); The full length cDNAs of human AMPK β2 (NM_005399.3); the full length cDNA of human AMPK γ1 (NM_002733.3) had been inserted into pET28b(+); 6×His (N); made in house; host or cells: Escherichia coli BL21 CodonPlus (DE3)-RIL; experiment: Test Example 2: activation of phosphorylated human AMPK α2β2γ1 (mobility-shift kinase assay, FL-Peptide 7); type: biochemical; conditions: maximum rate of increase in activity within the measurement range, control = 100%; read-out: Emax
Note to self: number, then unit, no commentary.

Q: Read the entry CONC(=O)c1ccc(-c2ccc(-c3nc4cc(O[C@@H]5CO[C@H](CO)C5)[nH]c4cc3F)cc2)cc1 [Compound I-2-86] and write its reported Emax.
Result: 592%

Q: Read the entry COCCN(C)c1ccc(-c2ccc(-c3nc4cc(O[C@@H]5CO[C@H]6[C@@H]5OC[C@H]6O)[nH]c4cc3F)cc2)cc1 [Compound I-2-12] and write its reported Emax.
Result: 367%

Q: Read the entry CNC(=O)Nc1ccc(-c2ccc(-c3nc4cc(O[C@@H]5CO[C@H]6[C@@H]5OC[C@H]6O)[nH]c4cc3F)cc2)cc1 [Compound I-1-08] and write its reported Emax.
Result: 444%

* * *

biological target: Human AMPK α2β2γ1 (Homo sapiens, UniProt O43741+P54646); construct: The full length cDNAs of human AMPK β2 (NM_005399.3) and human AMPK α2 (NM_006252.3); The full length cDNAs of human AMPK β2 (NM_005399.3); the full length cDNA of human AMPK γ1 (NM_002733.3) had been inserted into pET28b(+); 6×His (N); made in house; host or cells: Escherichia coli BL21 CodonPlus (DE3)-RIL; test: Test Example 2: activation of phosphorylated human AMPK α2β2γ1 (mobility-shift kinase assay, FL-Peptide 7); assay type: biochemical; details: compound concentration showing 150% relative to the control (100%); human AMPK α2β2γ1 phosphorylated with CaMKK2
I'd be grateful if you could share measured EC150 for these entries.
Note to self: number, then unit, no commentary.

Q: Read the entry "O=C1OCCN1c1ccc(-c2ccc(-c3nc4cc(O[C@@H]5CO[C@H]6[C@@H]5OC[C@H]6O)[nH]c4cc3F)cc2)cc1" and write its reported EC150.
Result: 0.8 nM

Q: Read the entry "CCOCCOc1ccc(-c2ccc(-c3nc4cc(O[C@@H]5CO[C@H]6[C@@H]5OC[C@H]6O)[nH]c4cc3F)cc2)cc1" and write its reported EC150.
Result: 5.1 nM

Q: Read the entry CN(C)S(=N)(=O)c1ccc(-c2ccc(-c3nc4cc(O[C@@H]5CO[C@H]6[C@@H]5OC[C@H]6O)[nH]c4cc3F)cc2)cc1 (stereo partly drawn) and write its reported EC150.
Result: 2.1 nM

Q: Read the entry "CS(C)(=O)=Nc1ccc(-c2ccc(-c3nc4cc(O[C@H]5CCOC5)[nH]c4cc3Cl)cc2)cc1" and write its reported EC150.
Result: 24 nM

Q: Read the entry COC(=O)NC1CC=C(c2ccc(-c3nc4cc(O[C@@H]5CO[C@H]6[C@@H]5OC[C@H]6O)[nH]c4cc3F)cc2)CC1 (stereo partly drawn) [Compound I-1-23] and write its reported EC150.
Result: 2.9 nM

Q: Read the entry CS(=O)(=O)NC1CC=C(c2ccc(-c3nc4cc(O[C@@H]5CO[C@H]6[C@@H]5OC[C@H]6O)[nH]c4cc3F)cc2)CC1 (stereo partly drawn) and write its reported EC150.
Result: 3.4 nM

* * *

molecular target: Human AMPK α2β2γ1 (Homo sapiens, UniProt O43741+P54646); construct: The full length cDNAs of human AMPK β2 (NM_005399.3) and human AMPK α2 (NM_006252.3); The full length cDNAs of human AMPK β2 (NM_005399.3); the full length cDNA of human AMPK γ1 (NM_002733.3) had been inserted into pET28b(+); 6×His (N); made in house; host or cells: Escherichia coli BL21 CodonPlus (DE3)-RIL; assay: Test Example 2: activation of phosphorylated human AMPK α2β2γ1 (mobility-shift kinase assay, FL-Peptide 7); format: biochemical; conditions: compound concentration showing 150% relative to the control (100%); human AMPK α2β2γ1 phosphorylated with CaMKK2
measurement.type: EC150 (nM)
Output spec: scalar in nM, unitless text.

Q: Read the entry O[C@@H]1CO[C@H]2[C@@H]1OC[C@H]2Oc1cc2nc(-c3ccc(-c4ccc(CN5CCOCC5)cc4)cc3)c(F)cc2[nH]1 [Compound I-2-22] and write its reported EC150.
Result: 5.9

Q: Read the entry CC(=O)N(C)c1ccc(-c2ccc(-c3nc4cc(O[C@@H]5CO[C@H]6[C@@H]5OC[C@H]6O)[nH]c4cc3F)cc2)cc1 [Compound I-1-36] and write its reported EC150.
Result: 1.7

Q: Read the entry O[C@@H]1CO[C@H]2[C@@H]1OC[C@H]2Oc1cc2nc(-c3ccc(C#CC4CCNCC4)cc3)c(F)cc2[nH]1 [Compound I-2-64] and write its reported EC150.
Result: 16

Q: Read the entry COCCOc1ccc(-c2ccc(-c3nc4cc(O[C@@H]5CO[C@H]6[C@@H]5OC[C@H]6O)[nH]c4cc3F)cc2)cc1 [Compound I-1-66] and write its reported EC150.
Result: 8.5

Q: Read the entry OCCCc1ccc(-c2ccc(-c3nc4cc(O[C@@H]5CO[C@H]6[C@@H]5OC[C@H]6O)[nH]c4cc3F)cc2)cc1 [Compound I-2-30] and write its reported EC150.
Result: 4.3

Q: Read the entry O=C(c1ccc(-c2ccc(-c3nc4cc(O[C@@H]5CO[C@H](CO)C5(F)F)[nH]c4cc3F)cc2)cc1)N1CCOCC1 [Compound I-2-97] and write its reported EC150.
Result: 4.6

Q: Read the entry C[S+]([O-])c1ccc(-c2ccc(-c3nc4cc(O[C@@H]5CO[C@H]6[C@@H]5OC[C@H]6O)[nH]c4cc3F)cc2)cc1 (single isomer, unassigned) [Compound I-2-09] and write its reported EC150.
Result: 1.9

Q: Read the entry OCC1(c2ccc(-c3nc4cc(O[C@@H]5CO[C@H]6[C@@H]5OC[C@H]6O)[nH]c4cc3F)cc2)CC1 [Compound I-2-66] and write its reported EC150.
Result: 1.1

Q: Read the entry O[C@@H]1CO[C@H]2[C@@H]1OC[C@H]2Oc1cc2nc(-c3ccc(-c4ccc(C5=NCCO5)cc4)cc3)c(F)cc2[nH]1 [Compound I-1-15] and write its reported EC150.
Result: 0.58

Q: Read the entry OCCSc1ccc(-c2ccc(-c3nc4cc(O[C@@H]5CO[C@H]6[C@@H]5OC[C@H]6O)[nH]c4cc3F)cc2)cc1 [Compound I-2-16] and write its reported EC150.
Result: 1.8

Q: Read the entry O[C@@H]1CO[C@H]2[C@@H]1OC[C@H]2Oc1cc2nc(-c3ccc(-c4ccc(O[C@H]5CCOC5)cc4)cc3)c(F)cc2[nH]1 [Compound I-2-85] and write its reported EC150.
Result: 1.5

Q: Read the entry O=C(c1ccc(-c2ccc(-c3nc4cc(O[C@@H]5CO[C@H]6[C@@H]5OC[C@H]6O)[nH]c4cc3F)cc2)cc1)N1CCCC1 [Compound I-1-09] and write its reported EC150.
Result: 4.8
